# assay_protocol: Cytotoxicity against mouse NIH3T3 cells
# Assay type: toxicity, cell-based
parameter: IC50

Exercise: Given `CC(C)(C)Nc1ncc(-c2cnn(C(C)(C)CC(=O)O)c2)cc1-c1nc2ccccc2o1` , state its recorded IC50.
Key: > 100 µM

====

# assay_protocol: AUCt in male mouse at 5 mg/kg, po
# Assay type: ADME, organism-based
# condition_info: in vivo
parameter: AUC(0-t) (ng·h/mL)
// return numeric value only (unit: ng·h/mL, not printed)

Exercise: Give the measured AUC(0-t) of `CC(C)(C)Nc1ncc(-c2cnn(C(C)(C)CC(=O)O)c2)cc1-c1nc2ccccc2o1` .
Key: 53100
